B1: tRNA (parent)
chain: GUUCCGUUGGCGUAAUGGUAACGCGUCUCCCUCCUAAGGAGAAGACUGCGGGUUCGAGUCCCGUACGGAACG

Variants of: B1
MEASUREMENT_PROTOCOL: yeast fitness relative to wild type (ratio to wild type); higher = fitter; tRNA-Arg(CCU), competitive growth, 37 C, YPD
Fewer inactive variants are shown than the library holds.
PROPERTY_LABEL: yeast fitness
Please reply with the value in numeric form only.

C31G C46U yielded yeast fitness of 0.998

U2A C5U G39C C60A yielded yeast fitness of 0.541

A20U C49G yielded yeast fitness of 0.752

A45G G58A C60U yielded yeast fitness of 0.584

U26A A65C yielded yeast fitness of 0.946

C4G A40G yielded yeast fitness of 0.74

C4A C30G U59A yielded yeast fitness of 0.528

U7C A14C G63C yielded yeast fitness of 0.573

G48C C62U yielded yeast fitness of 0.899

A20G G51C G67A yielded yeast fitness of 0.534

G50C U53C yielded yeast fitness of 0.614

U59A C60G yielded yeast fitness of 0.655

C11A C24U C34U G58C C62G G67A yielded yeast fitness of 0.544

Data origin: the RNAGym collection of RNA variant scans (doi:10.1126/science.aae0568)
